The measured values listed here are drawn from ChEMBL document CHEMBL3217662.

assay: Intrinsic clearance in human liver microsomes; assay type: ADME; details: read-out: CLH
propertyMeasured: microsomal CLint

>>> print(df.to_string())
                             smilesnotation  propertymeasured  observedmeasurement
0  Cc1cccc(C)c1OCC(=O)N[C@@H](Cc1ccccc1)[C@@H](O)C[C@H](Cc1ccccc1)NC(=O)[C@H](C(C)C)N1CCCNC1=O  microsomal CLint        544 µL/min/mg
1  COC(=O)N[C@H](C(=O)N[C@@H](Cc1ccccc1)[C@@H](O)CN(Cc1ccc(-c2ccccn2)cc1)NC(=O)[C@@H](NC(=O)OC)C(C)(C)C)C(C)(C)C  microsomal CLint         23 µL/min/mg
2  CCOP(=O)(COc1ccc(C[C@H](NC(=O)O[C@H]2CO[C@H]3OCC[C@H]32)[C@H](O)CN(CC(C)C)S(=O)(=O)c2ccc(OC)cc2)cc1)OCC  microsomal CLint        9.2 µL/min/mg
3  CC(C)CN(C[C@@H](O)[C@H](Cc1ccccc1)NC(=O)O[C@H]1CO[C@H]2OCC[C@H]21)S(=O)(=O)c1ccc(N)cc1  microsomal CLint       30.9 µL/min/mg
